# system: Acetylcholinesterase (Homo sapiens) (UniProt P22303)
# Sequence (P22303 whole entry, looked up): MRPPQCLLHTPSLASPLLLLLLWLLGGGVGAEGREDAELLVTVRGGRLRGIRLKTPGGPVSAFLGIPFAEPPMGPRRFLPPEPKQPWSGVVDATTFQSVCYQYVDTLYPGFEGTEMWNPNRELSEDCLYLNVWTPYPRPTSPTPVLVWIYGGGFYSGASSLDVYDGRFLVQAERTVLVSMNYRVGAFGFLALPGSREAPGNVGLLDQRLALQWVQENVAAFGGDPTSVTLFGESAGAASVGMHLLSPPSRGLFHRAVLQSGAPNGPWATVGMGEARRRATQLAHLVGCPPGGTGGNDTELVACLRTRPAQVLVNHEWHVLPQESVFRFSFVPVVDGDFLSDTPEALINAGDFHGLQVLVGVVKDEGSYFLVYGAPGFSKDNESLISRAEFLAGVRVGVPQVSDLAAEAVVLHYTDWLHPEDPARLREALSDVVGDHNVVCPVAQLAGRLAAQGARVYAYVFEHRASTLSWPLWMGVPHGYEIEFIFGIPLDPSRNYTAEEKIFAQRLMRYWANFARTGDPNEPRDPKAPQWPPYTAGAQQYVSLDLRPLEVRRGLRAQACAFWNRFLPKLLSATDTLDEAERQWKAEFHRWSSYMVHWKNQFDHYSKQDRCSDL
# protocol description: Acetylcholinesterase (AChE) small molecule antagonists: colormetric cell-based qHTS assay (AID 1347395); also: nearly all actives have a fitted effect of over 30% in size
# setup conditions: SH-SY5Y cells AChE activity, colorimetric (Ellman); series mostly up to 115 µM
Results filed as inconclusive are left out. Active and inactive are the calls of the source. Calls follow the shape of the full dose curve.
reported endpoint: outcome

1) C=C(C)C(=O)OCC1CO1 (stereo not drawn) : inactive
2) C#CCOS(=O)OC1CCCCC1Oc1ccc(C(C)(C)C)cc1 (stereo not drawn) : inactive
3) NC(=S)Nc1ccccc1 : inactive

====

# protocol description: qHTS assay to identify small molecule antagonists of the estrogen related receptor (ERR) signaling pathway from Tox21 library - cell viability counter screen (AID 1224834); also: nearly all actives have a fitted effect of over 30% in size; also: potency is read from the fitted curve at half-maximal effect
# setup conditions: ERR reporter cells viability, CellTiter-Fluor, 17.5 h; series mostly up to 92.4 µM
# Description: National Center for Advancing Translational Sciences [NCATS] NIH Chemical Genomics Center [NCGC] U.S. Environmental Protection Agency [EPA] National Institutes of Environmental Health Sciences [NIEHS] National Toxicology Program [NTP] […] The ERR cells were dispensed at 2,000 cells/5 ul/well in 1536-well white plates using a Multidrop dispenser. […] After 30-minute incubation at 37 C/5% CO2, the fluorescence intensity in the plates was measured using a ViewLux plate reader.
Inconclusive results are not listed. Active and inactive are the calls of the source. Calls follow the shape of the dose curve; as a rule, active = well fitted cell-killing curve with a large enough effect in the repeat runs; inconclusive = weak or mixed curves; inactive = flat fitted curve, though single readings scatter.
reported endpoint: Potency

1. Cc1ccc2c(c1N)C(=O)c1ccccc1C2=O : 30.3 µM (active)
2. CCOC(=S)S : inactive
3. C=CCc1ccc(OC)cc1 : inactive
4. CCN(CC)C(=O)/C(Cl)=C(\C)OP(=O)(OC)OC : inactive
5. Nc1cccnc1 : inactive

All figures here come from PubChem BioAssay (Tox21).
